System: San Jose Scale (Quadraspidiotus perniciosus)
assay method text: Bioassay on San Jose Scale, foliar spray on cotton plants
Type: in vivo
study conditions: Diaspidiotus perniciosus, 216 h; 200 ppm foliar spray on cotton plants, live nymphs counted 9 days after infestation, Abbott corrected % control; read-out: Scale @ 200 ppm, % Control (or Mortality) rating
measured quantity: mortality at 200 ppm

Request: Can you look up the measured mortality at 200 ppm of Cc1nn(-c2cccnc2)cc1-c1cc(C(F)(F)F)ccn1 for me?
Result: 80 to 100%

Request: Param item: COc1cc(-c2cn(-c3cccnc3)nc2C)ncn1
Result: 0 to 80%

Request: Moving on to COc1cc(-c2cn(-c3cccnc3)nc2C)nc(OC)n1
Result: 0 to 80%

Request: Next compound up: Cc1cc(-c2cn(-c3cccnc3)nc2C)ccn1
Result: 0 to 80%

Request: Entry to check: COc1ccnc(-c2cn(-c3cccnc3)nc2C)n1
Result: 80 to 100%

----------
System: San Jose Scale (Quadraspidiotus perniciosus)
assay method text: Bioassay on San Jose Scale, foliar spray on cotton plants
Assay type: in vivo
study conditions: Diaspidiotus perniciosus, 216 h; 200 ppm foliar spray on cotton plants, live nymphs counted 9 days after infestation, Abbott corrected % control; read-out: Scale @ 200 ppm, % Control (or Mortality) rating
measured quantity: mortality at 200 ppm

Request: Please look up its mortality at 200 ppm: Cc1cncc(-c2cn(-c3cccnc3)nc2C)c1
Result: 0 to 80%

Request: Now give it for CSc1cccc(-c2cn(-c3cccnc3)nc2C)c1 too.
Result: 0 to 80%

Request: Moving on to the next compound: Fc1cncc(-n2cc(-c3cccc(C(F)(F)F)n3)c(Cl)n2)c1
Result: 80 to 100%

Request: What would you report for Cc1nn(-c2cccnc2)cc1-c1cccc(C(F)(F)F)n1 ?
Result: 80 to 100%

Request: How about Cc1nccc(-c2cn(-c3cccnc3)nc2C)n1 ?
Result: 80 to 100%

Request: How about Cc1nn(-c2cccnc2)cc1-c1cc(C(F)(F)F)ncn1 ?
Result: 80 to 100%

Request: Do the same for Cc1nn(-c2cccnc2)cc1-c1cccnc1 please
Result: 80 to 100%

Request: // next record COc1ccc(-c2cn(-c3cccnc3)nc2C)cn1
Result: 80 to 100%

Request: Param item: CSc1nc(-c2cn(-c3cccnc3)nc2C)cc(C(F)(F)F)n1
Result: 0 to 80%

Request: Repeat with Cc1nn(-c2cccnc2)cc1-c1ccnc(C(F)(F)F)n1
Result: 80 to 100%

Request: For Cc1nn(-c2cccnc2)cc1-c1ccc(C(F)(F)F)nc1 then?
Result: 80 to 100%

Request: // next record Cc1nn(-c2cccnc2)cc1-c1ccc(C(F)(F)F)cn1
Result: 80 to 100%

Request: Same lookup for Cc1ncccc1-c1cn(-c2cccnc2)nc1C , please.
Result: 80 to 100%

----------
Tested on: San Jose Scale (Quadraspidiotus perniciosus)
assay method text: Bioassay on San Jose Scale, foliar spray on cotton plants
Format: in vivo
study conditions: Diaspidiotus perniciosus, 216 h; 200 ppm foliar spray on cotton plants, live nymphs counted 9 days after infestation, Abbott corrected % control; read-out: Scale @ 200 ppm, % Control (or Mortality) rating
Task for the reader: assign each of the following compounds its reported mortality at 200 ppm.

Request: Data request, read-out mortality at 200 ppm, for FC(F)(F)c1cccc(-c2cnn(-c3cccnc3)c2)n1 [Compound 1]
Result: 80 to 100%

Request: Further, for Cc1nn(-c2cncc(F)c2)cc1-c1cccc(C(F)(F)F)n1 [Compound 3] ?
Result: 80 to 100%

Request: // same read-out, input: FC(F)(F)c1ccc(-c2cnn(-c3cccnc3)c2)cn1 [Compound 2]
Result: 0%

Request: What would you report for Cc1ccc(-c2cn(-c3cccnc3)nc2C)cn1 [Compound 26] ?
Result: 80 to 100%

Request: // query: COc1cccc(-c2cn(-c3cccnc3)nc2C)n1 [Compound 19]
Result: 80 to 100%
